- tested_on: UniProtKB O76083
- Sequence (O76083 whole entry): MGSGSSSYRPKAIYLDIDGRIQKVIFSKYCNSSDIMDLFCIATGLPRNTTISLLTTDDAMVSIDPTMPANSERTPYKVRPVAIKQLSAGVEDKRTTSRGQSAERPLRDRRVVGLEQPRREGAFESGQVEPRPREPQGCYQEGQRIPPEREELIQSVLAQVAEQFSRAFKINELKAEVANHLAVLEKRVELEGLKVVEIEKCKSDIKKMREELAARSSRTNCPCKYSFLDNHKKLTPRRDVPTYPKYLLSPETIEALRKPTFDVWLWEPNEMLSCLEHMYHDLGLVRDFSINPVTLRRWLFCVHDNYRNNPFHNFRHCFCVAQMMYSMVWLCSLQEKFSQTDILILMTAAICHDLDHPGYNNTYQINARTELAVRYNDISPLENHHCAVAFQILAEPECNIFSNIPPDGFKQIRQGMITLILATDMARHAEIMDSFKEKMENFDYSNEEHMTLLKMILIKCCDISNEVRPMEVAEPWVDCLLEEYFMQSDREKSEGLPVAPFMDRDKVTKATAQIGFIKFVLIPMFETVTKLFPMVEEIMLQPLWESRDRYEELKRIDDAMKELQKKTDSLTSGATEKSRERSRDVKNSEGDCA
- run_description: Inhibition of recombinant human PDE9A1 by radiometric assay
measured_endpoint: IC50
Phrase the answer as number then unit, nothing more needed.

Find the recorded IC50 belonging to C[C@@H]1CN(Cc2ncccn2)C[C@H]1c1cn2c(C3CCOCC3)ncc2c(=O)[nH]1 [US10513524, Compound (P3] and report it.
8.2 nM
